System: Aβ42
Test: Aβ42 release from HEK cells stably expressing APPswe (MSD electrochemiluminescence)
Assay type: cell-based, Human
Details: HEK cells expressing APPswe; 4-6 h incubation with test compound; Aβ42 secreted to cell medium

compound	IC50
COc1nc(Nc2ccc3c(n2)OC(CC(F)(F)F)CN(C)C3)ccc1-c1cnc(C)o1 (single isomer, unassigned) [Example 64]	4 nM
COc1nc(Nc2ccc3c(n2)OC(c2ncc(C)s2)CN(C)C3)ccc1-n1cnc(C)c1 (single isomer, unassigned; (+)) [Example 66]	38 nM
COc1nc(Nc2ccc3c(n2)OC(C2CC2)CN(C)C3C)ccc1-c1cnn(C)c1 (single isomer, unassigned) [Example 17]	14 nM
COc1nc(Nc2ccc3c(n2)O[C@H](c2ccc(F)cn2)CN(C)C3C)ccc1-c1cnn(C)c1 (single isomer, unassigned) [Example 50]	60 nM
COc1nc(Nc2cc(C)c3c(n2)OC(c2nc(C)cs2)CN(C)C3)ccc1-c1cnn(C)c1 (single isomer, unassigned) [Example 21]	179 nM
COc1nc(Nc2ccc3c(n2)O[C@H](c2ccc(F)cn2)CN(C)C3C)ccc1-c1cnn(C)c1 (single isomer, unassigned) [Example 51]	19 nM
